- ASSAYED_SYSTEM: human PDHK2 (hPDHK2) (Homo sapiens (Human), UniProt Q15119)
- PROTOCOL_DETAILS: Inhibitory action of PDHK activity in vitro (kinase reaction, residual PDH activity measured)
- Assay type: biochemical
- PARTICULARS: read-out: PDHK inhibitory activity IC50
PARAMETER: IC50

{"COMPOUND": "Cc1n[nH]c(-c2cccc3c2-c2ccccc2C3(O)C(F)(F)F)n1 (stereo not drawn)", "OBSERVED_VALUE": "> 10000 nM"}
{"COMPOUND": "O=C(O)c1cc(-c2cncnc2)c2c(c1)C(O)(C(F)(F)F)c1ccccc1-2 (stereo not drawn)", "OBSERVED_VALUE": "> 1000 nM"}

With those in mind, consider the next compound.
Summary for this compound, Cn1cc(-c2cc(C(C)(C)O)c3c(c2)C(O)(C(F)(F)F)c2ccccc2-3)cn1 (stereo not drawn) : IC50 is > 1000 nM

====

- ASSAYED_SYSTEM: human PDHK2 (hPDHK2) (Homo sapiens (Human))
- PROTOCOL_DETAILS: Inhibitory action of PDHK activity in vitro (kinase reaction, residual PDH activity measured)
- Format: biochemical
- PARTICULARS: PDHK inhibitory activity, class symbol of IC50
Reported IC50 values for a set of compounds

Summary for this compound, O=C1CCCCN1CCOc1ccc2c(c1)C(O)(C(F)(F)F)c1ccccc1-2 (stereo not drawn) : IC50 is 100 to 1000 nM

====

Reported log10(IC50) values for a set of molecules
- ASSAYED_SYSTEM: UniProt:Q15119
- PROTOCOL_DETAILS: Inhibitory action of PDHK activity in vitro (kinase reaction, residual PDH activity measured)
- Assay type: biochemical
- PARTICULARS: read-out: PDHK inhibitory activity IC50
Hello, just confirming the data are log10 of IC50 with units of nM.

Please review the following examples before continuing.
{"MOLECULE": "NC(=O)c1cc(CCCN2CCCC2=O)cc2c1-c1ccccc1C2(O)C(F)(F)F (stereo not shown)", "PARAMETER": "log10(IC50)", "OBSERVED_VALUE": 1.86}
{"MOLECULE": "O=C1CCCCN1CCOc1ccc2c(c1)C(O)(C(F)(F)F)c1ccccc1-2 (stereo not shown)", "PARAMETER": "log10(IC50)", "OBSERVED_VALUE": 2.02}
{"MOLECULE": "Cn1cc(-c2cc(OCCC(=O)O)cc3c2-c2ccccc2C3(O)C(F)(F)F)cn1 (stereo not shown)", "PARAMETER": "log10(IC50)", "OBSERVED_VALUE": 1.81}
{"MOLECULE": "CNC(=O)c1cccc2c1-c1ccccc1C2(O)C(F)(F)F (stereo not shown)", "PARAMETER": "log10(IC50)", "OBSERVED_VALUE": 4.52}

Summary for this molecule, Cn1cc(-c2cc(C#CCO)c3c(c2)C(O)(C(F)(F)F)c2ccccc2-3)cn1 (stereo not shown) : log10(IC50) is 2.36

Summary for this molecule, O=C(O)c1ccc(-c2cc(Cl)c3c(c2)C(O)(C(F)(F)F)c2ccccc2-3)cc1 (stereo not shown) : log10(IC50) is 1.76

Summary for this molecule, OCCCn1cc(-c2cccc3c2-c2ccccc2C3(O)C(F)(F)F)cn1 (stereo not shown) : log10(IC50) is 1.81
